Test system: Human Peripheral Blood Monocytes (PBMCs)
Experiment: Cytokine release from human PBMCs
Type: cell-based
Settings: 100 μM, LPS, 24 hours
Measurement Name: ILβ % DMSO control

[[record]]
compound = "CCC(=O)O [Propionate, propionate]"
measurement_name = "ILβ % DMSO control"
value_observed = "+ ((+) 50%≥ <90% DMSO)"

[[record]]
compound = "CC(O)CC(=O)O (stereo not drawn) [BHB, β-hydroxybutyrate]"
measurement_name = "ILβ % DMSO control"
value_observed = "− ((−) ≥110% DMSO;)"

[[record]]
compound = "CC(=O)O [Acetate, acetic acid]"
measurement_name = "ILβ % DMSO control"
value_observed = "= ((=) 90%≥ <110% DMSO)"

[[record]]
compound = "O=c1c(O)c(-c2ccc(O)c(O)c2)oc2cc(O)cc(O)c12 [Quercetin, quercetin]"
measurement_name = "ILβ % DMSO control"
value_observed = "+ ((+) 50%≥ <90% DMSO)"

[[record]]
compound = "CC(O)CCO (centres unmarked) [butanediol, 1,3-butanediol]"
measurement_name = "ILβ % DMSO control"
value_observed = "= ((=) 90%≥ <110% DMSO)"

[[record]]
compound = "O=C[C@@H](O)[C@H](O)[C@H](O)CO [arabinose]"
measurement_name = "ILβ % DMSO control"
value_observed = "= ((=) 90%≥ <110% DMSO)"

[[record]]
compound = "Oc1ccc(C=Cc2cc(O)cc(O)c2)cc1 [Resveratrol, resveratrol]"
measurement_name = "ILβ % DMSO control"
value_observed = "= ((=) 90%≥ <110% DMSO)"

[[record]]
compound = "CCCC(=O)O [Butyrate, butyrate]"
measurement_name = "ILβ % DMSO control"
value_observed = "− ((−) ≥110% DMSO;)"

